Target: T1, human CD55 (human, UniProt P08174 35-353, limits assumed)
T1 construct: also called Decay-Accelerating Factor; DAF
T1 sequence (looked up): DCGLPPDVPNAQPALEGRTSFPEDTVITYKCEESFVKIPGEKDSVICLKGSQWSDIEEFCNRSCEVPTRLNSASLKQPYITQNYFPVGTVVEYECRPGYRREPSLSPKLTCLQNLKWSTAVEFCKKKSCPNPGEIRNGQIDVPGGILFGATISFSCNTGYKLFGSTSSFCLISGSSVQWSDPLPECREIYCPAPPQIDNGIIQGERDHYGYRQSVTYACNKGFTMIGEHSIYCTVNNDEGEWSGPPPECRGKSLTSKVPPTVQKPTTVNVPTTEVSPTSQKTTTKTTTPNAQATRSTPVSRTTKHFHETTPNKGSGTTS
Experiment: ELISA on human CD55, HRP-anti-mouse secondary, A450; left panel 'Binding to human CD55 by ELISA', EC50 table below the graph
PROPERTY_NAME: EC50 (ng/mL)
Please state the figure in ng/mL; there is no need to write the unit.

# EC50 (binder: P5-1 with mouse IgG2A Fc domains (antibody, V domains shown, not shown: mouse IgG2A Fc domain) VH: EVQLVESGGGLVQPGGSLRLSCAASGFTFSSYYIHWVRQAPGKGLEWVAAISSSSGSTYYADSVKGRFTISADTSKNTAYLQMNSLRAEDTAVYYCARERYFYGDFVFDYWGQGTLVTVSS VL: DIQMTQSPSSLSASVGDRVTITCRASQSVSSAVAWYQQKPGKAPKLLIYSASSLYSGVPSRFSGSRSGTDFTLTISSLQPEDFATYYCQQYYSSPLTFGQGTKVEIKR ) is 4.27

# EC50 (binder: P5-1J with mouse IgG2A Fc domains (antibody, V domains shown, not shown: mouse IgG2A Fc domain) VH: EVQLVESGGGLVQPGGSLRLSCAASGFTFSHHYIHWVRQAPGKGLEWVAAISTGGGTTYYADSVKGRFTISADTSKNTAYLQMNSLRAEDTAVYYCARERYFNGDFIYDYWGQGTLVTVSS VL: DIQMTQSPSSLSASVGDRVTITCRASQSVSSAVAWYQQKPGKAPKLLIYSASSLYSGVPSRFSGSRSGTDFTLTISSLQPEDFATYYCQQYYSTPLTFGQGTKVEIKR ) is 4.07

# EC50 (binder: P5-4 with mouse IgG2A Fc domains (antibody, V domains shown, not shown: mouse IgG2A Fc domain) VH: EVQLVESGGGLVQPGGSLRLSCAASGFTFSSYYIHWVRQAPGKGLEWVAAISSSSGSTYYADSVKGRFTISADTSKNTAYLQMNSLRAEDTAVYYCAREDYYWGDFVFDYWGQGTLVTVSS VL: DIQMTQSPSSLSASVGDRVTITCRASQSVSSAVAWYQQKPGKAPKLLIYSASSLYSGVPSRFSGSRSGTDFTLTISSLQPEDFATYYCQQYYSSPLTFGQGTKVEIKR ) is 3.68

# EC50 (binder: P5-2-2A with mouse IgG2A Fc domains (antibody, V domains shown, not shown: mouse IgG2A Fc domain) VH: EVQLVESGGGLVQPGGSLRLSCAASGFTFSSYYIHWVRQAPGKGLEWVAAISSSSGSTYYADSVKGRFTISADTSKNTAYLQMNSLRAEDTAVYYCAREARFHGDFILDYWGQGTLVTVSS VL: DIQMTQSPSSLSASVGDRVTITCRASQSVSSAVAWYQQKPGKAPKLLIYSASSLYSGVPSRFSGSRSGTDFTLTISSLQPEDFATYYCQQYYITPLTFGQGTKVEIKR ) is 4.72
